# experiment.summary: Pharmacokinetic analysis and plasma drug concentrations (LC-MS/MS)
# Format: in vivo, APOE*3Leiden.CETP mice
# condition.info: APOE*3Leiden.CETP, mouse, plasma; single oral gavage, 100 mg/kg
experimental.readout: Cmax (ng/mL)
Give your result in ng/mL as a bare value.

Q: Need Cmax, item Cc1ccc(NC(=O)c2ccc(CN3CCN(C)CC3)cc2)cc1Nc1nccc(-c2cccnc2)n1 [Imatinib, imatinib]
Result: 5290

====

# AUC(0-t) values compiled below
# experiment.summary: Pharmacokinetic analysis and plasma drug concentrations (LC-MS/MS)
# Format: in vivo, APOE*3Leiden.CETP mice
# condition.info: APOE*3Leiden.CETP, mouse, plasma, po; repeated dose, QD, 10 mg/kg, after 16 weeks; read-out: AUC0–24
Give your result in ng·h/mL as a bare value.

| molecule | experimental.readout | measured |
| --- | --- | --- |
| Cc1cn(-c2cc(NC(=O)c3ccc(C)c(Nc4nccc(-c5cccnc5)n4)c3)cc(C(F)(F)F)c2)cn1 [Nilotinib, nilotinib] | AUC(0-t) | 24600 |

Consider the record given below.
Q: Need AUC(0-t), item Cc1ccc(C(=O)Nc2ccc(CN3CCN(C)CC3)c(C(F)(F)F)c2)cc1C#Cc1cnc2cccnn12 [Ponatinib, ponatinib]
Result: 8110
